Just for reference, the nanobody polyreactivity screen of Harvey et al. (2022) is where these values come from.

experiment: yeast display, Sf9 membrane polyspecificity reagent, FACS + sequencing; frameworks hold sequencing errors
observation-type: polyreactivity (PSR sort gate)

These recorded examples may help you get a feel for the data.
[[record]]
residue_string = "QVQLQESGGALVQAGGSLRLSCAASGTISDRAGMGWYRQAPAKNANVATIDRGTNTNYADSVKGRFTISRDNAKNTVYLQMNSLKPEDTAVYNCAADGRYYIYLDYWGQGTQVTVSS"
result = "low polyreactivity"

[[record]]
residue_string = "QVQLVESGGGLVHAGGSLRLSCAASGFTFGGYAMGWYRQAPGIEREFVAAISSSGGRTYYADSVKRRFTISRDNAKNTVYLPMNSLKPEDTAVYDCNVGQYLRARRPVDSWGQGTQVSVSS"
result = "high polyreactivity"

[[record]]
residue_string = "QVQLVESGGGLVQAGASLRLSCAASGRIFVVNAMGWYRQAPGKERELVATITRSGGITYYADSVKGRFTISRDNAKNTVYLQMNSLKPEDTAVYYCNADVLFYTYYTRGRFDFDYWGQGSQVTVSS"
result = "low polyreactivity"

[[record]]
residue_string = "HVQLVESGGGLVQAGGSLRVSCAASGSTFTRNAMGWYRQAPGKERELVAAITLRGGRTYYADSVKGRFTISRDNAKNTVYLQMNSLKPEDTAVYYCAAKPYTAYSYYEQRGRKYDYWGQGTQVTVSS"
result = "low polyreactivity"

[[record]]
residue_string = "QVQLVESGGGLVQAGGSLRLSCAASGRIFNFYAMGWYRQAPGKERELVASITGSTGSTYYADSVKGRFTISRDNAKNTVYLQMNSLKPEDTAVYYCNTYRVTRDYYWGQGTQVTVSS"
result = "low polyreactivity"


Now turn to the next sequence.
Indicate the recorded polyreactivity (PSR sort gate) value for this sequence: QVQLVESGGGLVQAGGSLRLSCAASGTMGWYRQAPGKERELVAANSSSDRTSYADSVKGRFTISRDNAKNTVYLQMNSLKPEDTAVYYCNASTVFAWRTSTLKLFYTAHDYWGQGTQVTVSS low polyreactivity

---

test: yeast display, Sf9 membrane polyspecificity reagent, FACS + sequencing; frameworks hold sequencing errors
observation-type: polyreactivity (PSR sort gate)

[[record]]
residue_string = "QVQLVESGGGLVQAGGSLRLSCAASGSTSRYAMGWYRQAPGKERELVAAITRSGGTTYYADSVKGRFTISRDNAKNTVYLQMNSLKPEDTAVYYCATSDRQVKYDYWGQGTQVTVSS"
result = "low polyreactivity"

[[record]]
residue_string = "QVQLVESGGGLVQAGGSLRLSCAASGRTFVYNAMGWYRQAPGKERELVAAIDWSGGSTYYADSVKGRFTISRDNAKNTVYLQMNSLKPEDTAVYYCAADYYYPSQMDYWGQGTQVTVSS"
result = "low polyreactivity"

[[record]]
residue_string = "QVQLVESGGGLVQAGGSLRLSCAASGSIFNYNMGWYRQAPGKERELVAAVSTNYADSVKGRFTISRDNAKNTVYLQMNSLKPEDPAGYYCGVTPEKSGDQYDYWGPGTQVTVSS"
result = "low polyreactivity"

[[record]]
residue_string = "HVQLVESGGGLVQAGGSLRLSCAASGRTFLGNAMGWYRQAPGKERQLVAVITGSGARTYYADSEKGRFTISRDNAKNTVYLQMNSLKPEDTAVYYCAAAGFSGQYRSYYWGQGTQVTVSS"
result = "high polyreactivity"

[[record]]
residue_string = "QVQLVESGGGLVQAGGSLRLSCAASGFTFKDNTMGWYRQAPGKEGELVAAISSRGGSTYYADSVKGRFTISRDTAKNTVYLQMNSLKPEDTAVYYCAARSHSSRSRSPGDYWGQGTQVTVSS"
result = "high polyreactivity"


Indicate the recorded polyreactivity (PSR sort gate) value for this sequence: QVQLVESGGGLVQAGGSLRLSSAASRITFDQNAMGWYRQAPGKERELVAAITRGSSTNYADSVKGRFTISRDNAKNTVYLQMNSLKPEDTAVYYCNADGYARFRTYYSRDTREYDYWGQGTQVTVSS low polyreactivity

Indicate the recorded polyreactivity (PSR sort gate) value for this sequence: QVQLVESGGGIVQAGGSLRLSCAASGFTLYYYAMGWYRQAPGKERELVAAITSSGTSTYYADSVKGRFTISRDNAKNTVYVQMNSLKPEDTAVYYCAAVSKIYHYRAVRLDDYWGQGTQVTVSS low polyreactivity

Indicate the recorded polyreactivity (PSR sort gate) value for this sequence: QVQLVESGGALVQAGGSLRISCAASGRTLSAYAMGLYRQAPGKERELVAVISRSGGRTYYADSVKGRFTISRDNAKNTVYLQMNSLKQEDSAVYYCAAGSSRLRALYNYWGQGTQVNVSS high polyreactivity

Indicate the recorded polyreactivity (PSR sort gate) value for this sequence: QVQHVESGGGLVQAGGSLRLSCAVSGRTFYYYAMGWYRQAPGKERELVAAISSSGGSTYYADSVKGRFTISRDNAKNTVYLQMNSLKPEDTAVYYCAAAARKVSVSRYLYYYWGQGTQVTVSS high polyreactivity

Indicate the recorded polyreactivity (PSR sort gate) value for this sequence: QVQLVESGGGLVQAGGSLRLSCAASGSIFLKYAMGWYRQAPGKERELVATISRGGSTNYADSVKGRFTISRDNAKNTVYLLMNSLKPEYTAVYYCAAKYGRPYGTYGYWGQGTQVTVSS high polyreactivity

Indicate the recorded polyreactivity (PSR sort gate) value for this sequence: QVQLVESGGGLVQAGGSLRLSCAASGSTFRRYVMGGYREAAGKERELVAAISGSSGSTYYADSVKGRFTISRDNAKNTVYLQMNSLKPEDTAVYYCAAVRATQGYRYGYWGQGTQVTVSS high polyreactivity

Indicate the recorded polyreactivity (PSR sort gate) value for this sequence: QVQLVESGGGLVQAGGSLRLSCAASGYTFPLYAMGWYRQAAGKERELVADINIGGASTYYADSVKGRFTISRHNAKNTVYLQMNSLKPEESAVYYCAKEYYDGYFPTFDYDYWGQGTQVTVSS low polyreactivity

---

assay: yeast display, Sf9 membrane polyspecificity reagent, FACS + sequencing; frameworks hold sequencing errors
observation-type: polyreactivity (PSR sort gate)

[[record]]
residue_string = "QVQLVESGGGLVQAGGSLRLSCAASGFIFGYYAMGWYRQAPGKERELVAAISSRGGSTYYADSVKGRFTISRDNAKNTVYLQMNSLKPEDTAVYYCAVRRVSFRHKFGQYDYWGQGTQVTVSS"
result = "high polyreactivity"

[[record]]
residue_string = "QVQLVESGGGLVQAGGSLRLSCAASGSTFFHYVMGWYRQAPWKERELVAAIRWSGGRTRYADSVKGRFTISRDNAKNTVYLQMNSLKPEDTAVYYCAAYRLSKPFYKYDYWGQGTQVTVSS"
result = "high polyreactivity"

[[record]]
residue_string = "QVQLVESGGGLVKAGGSLRLRCAASGSIFRYYVMGWYRQAPGKERELVAAISGGSTYYADSVKGRFTISRDNAKNTVYLQLNSLKPEDTAVYYSAARGKRRSGGENYAYGYWGQGTQVTVSS"
result = "high polyreactivity"


---

test: yeast display, Sf9 membrane polyspecificity reagent, FACS + sequencing; frameworks hold sequencing errors
observation-type: polyreactivity (PSR sort gate)

These recorded examples may help you get a feel for the data.
[[record]]
residue_string = "QVQLQESGGRLVQSGGSLRPSCAASGSISDGVPMGWNSQAPGDERELVATTVLGATTNNADSVKGRFTISRGNAKNTVYLQMNSLKPEETAVYYCAAPLRYDKGFSYWGQGTQVTVSS"
observation_type = "polyreactivity (PSR sort gate)"
result = "low polyreactivity"

[[record]]
residue_string = "QVQLVESGGGLVQAGGSLRLSCAASGITFRYYAMGWYRQAPGKERELVAGISGRGGSTYYADSVKGRFTISRDNAKNTVYLQLNSLKPEDTAVYYCAKDRLWYRGYRWGYYYWGQGTQVTVSS"
observation_type = "polyreactivity (PSR sort gate)"
result = "high polyreactivity"

[[record]]
residue_string = "QVQLVESGGGLVQAGGSLRLSCAASGRIIVLYAMGWYIQAPGKERELVASIRSGGSTNYADSVKGRFTISRDNAKNTVYLQMNSLKPEDTAVYYCAARIRSVVPFDMDYWGQGTQVTVSS"
observation_type = "polyreactivity (PSR sort gate)"
result = "low polyreactivity"

[[record]]
residue_string = "QVQLVESGGGLVQAGGSLRLSCAASGSTFKTYAMGWYRQAPGKERELVAAITSSGGRTYYADSVKGRFTISRDNAKNTVYLQMNSLKPEDTAVYYCAAVRRSYNQLDYWGQGTQVTVSS"
observation_type = "polyreactivity (PSR sort gate)"
result = "high polyreactivity"

[[record]]
residue_string = "QVQLVESGGGLVQAGGSLRLSCAASGSIFTWYAMGWYRQAPGKEREFVDSITGSGGSTYYADSVKGRFTISRDNAKNTVYLQMNSLKPEDTAVYYCAKGHVYSSYRYRLRSTAFGYWGQGTQVTVSS"
observation_type = "polyreactivity (PSR sort gate)"
result = "high polyreactivity"

[[record]]
residue_string = "QVQLVESGGCLVQAGCSLSLSCAASGITFRPYAMGWYRQAPGKERELVAAIRWDGGSTYYADSVKGRFTISRDNAKNTVYLQMNSMKPEDTAVDYCAAKRPTHVRKMDYWGQGTQVTVSS"
observation_type = "polyreactivity (PSR sort gate)"
result = "high polyreactivity"


Indicate the recorded polyreactivity (PSR sort gate) value for this sequence: QVQLVESGGGLVQAGGSLLLSCAASGSTYKYAMGWYRQAPGKERELVAVISSGGSTDDADSVKGRFTISRDNAKNTVYLQMNSLKPEDTAVYYCAADSGFVSIGSYYWGLGTQVTVSS low polyreactivity

Indicate the recorded polyreactivity (PSR sort gate) value for this sequence: QVHLVESGGGLVQAGGSLRLSCAASGFTFTRYAMGWYRQAPGKERELVAAISFSGGSTYYADSVKGRFTISRDNAKNTVYLQMNSLKPEDTAVYYCAGRWSVSYQYWGQGTQVTVSS high polyreactivity

Indicate the recorded polyreactivity (PSR sort gate) value for this sequence: QVQLVESGGGLVQAGGSLRLSCAASGGIFDTYAMGWYRQAPGKERELVAAISSTGGSTYYADSVKGRFTISRDNAKNTVYLQMNSLKPEDTAVYYCNAVLARFWRYRRWEYDYWGQGTQVTLSS high polyreactivity
